system: HCT-116; test: MTT cell viability, HCT-116; assay type: cell-based; conditions: Homo sapiens, colon cancer, 48 h of drug treatment, average of three experiments
pIC50: −log10 of the molar value.
measured_quantity: pIC50

# molecule, measured_quantity, readout_number
rows = [
    ("Fc1ccc(N/N=C2\\C=C[C@@]3(CC2)CC[C@@H]2NCCc4c2n3c2ccccc42)cc1", "pIC50", 5.19),
    ("FC(F)(F)Oc1ccc(N/N=C2\\C=C[C@@]3(CC2)CC[C@@H]2NCCc4c2n3c2ccccc42)cc1", "pIC50", 5.71),
    ("FC(F)(F)c1ccc(N/N=C2\\C=C[C@@]3(CC2)CC[C@@H]2NCCc4c2n3c2ccccc42)cc1 (racemic)", "pIC50", 6.31),
    ("Cc1ccc2c(c1)c1c3n2[C@@]2(C=C/C(=N\\Nc4ccc(C(F)(F)F)cc4)CC2)CC[C@@H]3NCC1", "pIC50", 5.75),
    ("Brc1ccc(N/N=C2\\C=C[C@@]3(CC2)CC[C@@H]2NCCc4c2n3c2ccccc42)cc1", "pIC50", 5.58),
    ("COc1ccc2c3c4n(c2c1)[C@@]1(C=C/C(=N\\Nc2ccc(C(F)(F)F)cc2)CC1)CC[C@@H]4NCC3", "pIC50", 5.64),
    ("Fc1ccc2c3c4n(c2c1)[C@@]1(C=C/C(=N\\Nc2ccc(C(F)(F)F)cc2)CC1)CC[C@@H]4NCC3", "pIC50", 5.52),
]

* * *

system: HEP3B; experiment: MTT cell viability, HEP3B; type: cell-based; conditions: Homo sapiens, liver cancer, 48 h of drug treatment, average of three experiments
Listing of recorded IC50 by entry.

# compound, measurement_target, IC50 / µM
rows = [
    ("Fc1ccc(N/N=C2\\C=C[C@@]3(CC2)CC[C@@H]2NCCc4c2n3c2ccccc42)cc1 [Compound 1b]", "HEP3B", 8),
    ("Oc1ccc2c(c1)c1c3n2[C@@]2(C=C/C(=N\\Nc4ccc(C(F)(F)F)cc4)CC2)CC[C@@H]3NCC1 [Compound 1i]", "HEP3B", 5.13),
    ("COc1ccc2c(c1)c1c3n2[C@@]2(C=C/C(=N\\Nc4ccc(C(F)(F)F)cc4)CC2)CC[C@@H]3NCC1 [Compound 1k]", "HEP3B", 2.28),
    ("Cc1ccc2c(c1)c1c3n2[C@@]2(C=C/C(=N\\Nc4ccc(C(F)(F)F)cc4)CC2)CC[C@@H]3NCC1 [Compound 1h]", "HEP3B", 2.56),
    ("COc1ccc2c3c4n(c2c1)[C@@]1(C=C/C(=N\\Nc2ccc(C(F)(F)F)cc2)CC1)CC[C@@H]4NCC3 [Compound 1j]", "HEP3B", 2.88),
    ("Brc1ccc(N/N=C2\\C=C[C@@]3(CC2)CC[C@@H]2NCCc4c2n3c2ccccc42)cc1 [Compound 1c]", "HEP3B", 4.21),
    ("Fc1ccc2c3c4n(c2c1)[C@@]1(C=C/C(=N\\Nc2ccc(C(F)(F)F)cc2)CC1)CC[C@@H]4NCC3 [Compound 1g]", "HEP3B", 3.6),
    ("FC(F)(F)Oc1ccc(N/N=C2\\C=C[C@@]3(CC2)CC[C@@H]2NCCc4c2n3c2ccccc42)cc1 [Compound 1f]", "HEP3B", 2.64),
    ("O=[N+]([O-])c1ccc(N/N=C2\\C=C[C@@]3(CC2)CC[C@@H]2NCCc4c2n3c2ccccc42)cc1 [Compound 1d]", "HEP3B", 2.32),
    ("FC(F)(F)c1ccc(N/N=C2\\C=C[C@@]3(CC2)CC[C@@H]2NCCc4c2n3c2ccccc42)cc1 (racemic) [Compound 1e]", "HEP3B", 2.03),
]
